# ASSAY SYSTEM: T1, recombinant c-Met-Extra-Cellular Domain (ECD) fused to a human IgG1 Fc domain (R&D Systems, 358MT) (human, UniProt P08581 25-932)
# T1 construct: extracellular domain; Bought; bivalent (dimeric) fusion, MW 129 kDa as printed; also called c-Met-Fc; c-Met-Fc-Tag His; not shown: human IgG1 Fc domain
# T1 sequence (P08581 25-932): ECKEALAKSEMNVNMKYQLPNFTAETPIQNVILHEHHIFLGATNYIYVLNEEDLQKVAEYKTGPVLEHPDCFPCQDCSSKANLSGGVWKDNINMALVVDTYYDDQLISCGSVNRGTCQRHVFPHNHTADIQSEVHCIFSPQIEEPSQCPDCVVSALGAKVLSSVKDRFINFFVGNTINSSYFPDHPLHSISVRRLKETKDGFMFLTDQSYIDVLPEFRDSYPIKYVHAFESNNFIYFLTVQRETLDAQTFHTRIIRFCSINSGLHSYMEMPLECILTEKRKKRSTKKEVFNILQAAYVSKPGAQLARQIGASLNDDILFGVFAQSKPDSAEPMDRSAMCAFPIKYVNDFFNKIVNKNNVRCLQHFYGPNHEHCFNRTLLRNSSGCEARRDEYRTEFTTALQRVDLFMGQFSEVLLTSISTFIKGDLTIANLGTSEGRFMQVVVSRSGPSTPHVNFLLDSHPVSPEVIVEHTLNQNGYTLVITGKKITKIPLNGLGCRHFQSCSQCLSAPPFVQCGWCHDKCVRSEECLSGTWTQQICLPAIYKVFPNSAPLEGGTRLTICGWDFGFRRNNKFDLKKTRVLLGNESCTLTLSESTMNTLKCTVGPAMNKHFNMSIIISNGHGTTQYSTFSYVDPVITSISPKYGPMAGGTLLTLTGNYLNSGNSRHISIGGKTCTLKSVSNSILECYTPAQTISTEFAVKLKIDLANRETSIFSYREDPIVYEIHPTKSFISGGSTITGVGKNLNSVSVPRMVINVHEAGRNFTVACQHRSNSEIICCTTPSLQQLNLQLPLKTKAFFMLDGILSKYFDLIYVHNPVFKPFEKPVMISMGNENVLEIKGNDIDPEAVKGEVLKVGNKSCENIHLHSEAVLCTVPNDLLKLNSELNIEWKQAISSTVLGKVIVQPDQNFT
# ASSAY DETAILS: displacement of [125I]-HGF from immobilized c-Met-Fc (FlashPlate)
ASSAY METRIC: IC50 (nM)

224G11 murine monoclonal antibody (antibody, mouse IgG1, V domains shown, also called CNCM I-3731) VH: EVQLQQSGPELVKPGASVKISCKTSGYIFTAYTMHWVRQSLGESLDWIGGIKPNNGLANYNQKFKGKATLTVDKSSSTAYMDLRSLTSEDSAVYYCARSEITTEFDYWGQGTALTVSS VL: DIVLTQSPASLAVSLGQRATISCRASESVDSYANSFMHWYQQKPGQPPKLLIYRASNLESGIPARFSGSGSRTDFTLTINPVEADDVATYYCQQSKEDPLTFGSGTKLEMK : 3
